- System: Solanum nigrum (SOLNI)
- Test name: Post-emergence biological efficacy, glasshouse pot test
- Assay type: in vivo
- Test settings: 312 h, 1,000 g/ha, evaluated after 13 days, 100=total damage, 0=no damage, read-out: Percentage damage caused to weed species, post-emergence, SOLNI
Measured pest or weed control at 1000 g/ha accompanies every entry in the list below.

| Molecule | Units symbol | pest or weed control at 1000 g/ha |
| --- | --- | --- |
| C=Cc1c(NCc2ccccc2OC)cc(Cl)nc1C(=O)OC | % | 90 |
| CCN1CCCC1CNc1cc(Cl)nc(C(=O)OC)c1Cl (centres unmarked) | % | 100 |
| COC(=O)c1nc(Cl)cc(NCC2CCCO2)c1Cl (centres unmarked) | % | 100 |
| COC(=O)c1nc(-c2ccc(Cl)c(OC)c2F)cc(NCc2ccco2)c1Cl | % | 100 |
| C=Cc1c(NCc2ccccc2C)cc(Cl)nc1C(=O)OC | % | 80 |

* * *

- Test system: Echinochloa crus-galli (ECHCG)
- Test name: Post-emergence biological efficacy, glasshouse pot test
- Format: in vivo
- Test settings: 312 h, 1,000 g/ha, evaluated after 13 days, 100=total damage, 0=no damage, read-out: Percentage damage caused to weed species, post-emergence, ECHCG
# pest or weed control at 1000 g/ha annotations
Parameter: pest or weed control at 1000 g/ha

| Compound smiles | Measured value |
| --- | --- |
| C=Cc1c(NCc2ccccc2C(F)(F)F)cc(Cl)nc1C(=O)OC | 20% |
| COC(=O)c1nc(-c2ccc(Cl)c(OC)c2F)cc(NCc2ccc(OC)cc2OC)c1Cl | 60% |
| C=Cc1c(C(=O)OC)nc(Cl)c(Cl)c1NCc1ncccc1Cl | 20% |
| COC(=O)c1nc(Cl)cc(NCc2ccccc2)c1Cl | 60% |
| C=Cc1c(NCc2ncccc2Cl)cc(Cl)nc1C(=O)OC | 40% |

* * *

- System: Echinochloa crus-galli (ECHCG)
- Test name: Post-emergence biological efficacy, glasshouse pot test
- Format: in vivo
- Test settings: 312 h, 1,000 g/ha, evaluated after 13 days, 100=total damage, 0=no damage, read-out: Percentage damage caused to weed species, post-emergence, ECHCG
Listed here are compounds together with their documented pest or weed control at 1000 g/ha.

| Compound | Units symbol | pest or weed control at 1000 g/ha |
| --- | --- | --- |
| COC(=O)c1nc(Cl)c(Cl)c(NCc2ccccc2[N+](=O)[O-])c1C(F)(F)F | % | 50 |
| C=Cc1c(NCc2ccccc2OC)cc(Cl)nc1C(=O)OC | % | 20 |
| COC(=O)c1nc(Cl)cc(NCc2ccco2)c1Br | % | 60 |
| COC(=O)c1nc(Cl)cc(NCc2ccccc2Br)c1Cl | % | 10 |
| COC(=O)c1nc(Cl)cc(NCc2cccc(F)c2)c1Cl | % | 50 |
| COC(=O)c1nc(-c2ccc(Cl)c(N(C)C)c2F)cc(NCc2ccco2)c1Cl | % | 50 |
| C=Cc1c(NCc2c(Cl)cccc2Cl)cc(Cl)nc1C(=O)OC | % | 10 |
| C=Cc1c(C(=O)OC)nc(Cl)c(F)c1NCc1ccccc1[N+](=O)[O-] | % | 70 |
| COC(=O)c1nc(Cl)cc(NCc2ncccc2Cl)c1Br | % | 20 |
| COC(=O)c1nc(Cl)cc(NCC2CCCO2)c1Cl (stereo not shown) | % | 30 |
| COC(=O)c1nc(Cl)cc(NCc2ccc3c(c2)OCO3)c1Cl | % | 20 |
| CCO/C=C\c1c(NCc2ccco2)cc(-c2ccc(Cl)c(OC)c2F)nc1C(=O)OC | % | 0 |
| COC(=O)c1nc(Cl)c(Cl)c(NCc2ccccc2[N+](=O)[O-])c1Br | % | 0 |
| COC(=O)c1nc(Cl)cc(NCc2ccccn2)c1Cl | % | 20 |
| C=Cc1c(NCc2ccco2)cc(-c2ccc(Cl)c(OC)c2F)nc1C(=O)OC | % | 20 |
| COC(=O)c1nc(Cl)cc(NCc2ncccc2C)c1Cl | % | 60 |
| COC(=O)c1nc(Cl)cc(NCc2cccnc2)c1Cl | % | 20 |
| C=Cc1c(NCc2cccs2)cc(Cl)nc1C(=O)OC | % | 70 |
| COC(=O)c1nc(Cl)c(Cl)c(NCc2ccccc2[N+](=O)[O-])c1C | % | 10 |

* * *

- System: Amaranthus retroflexus (AMARE)
- Test name: Post-emergence biological efficacy, glasshouse pot test
- Type: in vivo
- Test settings: 312 h, 1,000 g/ha, evaluated after 13 days, 100=total damage, 0=no damage, read-out: Percentage damage caused to weed species, post-emergence, AMARE
- Description: Seeds of Alopecurus myosuroides (ALOMY), Setaria faberi (SETFA), Echinochloa crus-galli (ECHCG), Solanum nigrum (SOLNI), Amaranthus retroflexus (AMARE) and Ipomea hederaceae (IPOHE) were sown in standard soil in pots. […] After 13 days the test was evaluated (100=total damage to plant; 0=no damage to plant).
Let's look at some compounds and their measured pest or weed control at 1000 g/ha.
Parameter: pest or weed control at 1000 g/ha (%)

| Compound smiles | Measured value |
| --- | --- |
| C=Cc1c(C(=O)OC)nc(Cl)c(Cl)c1NCc1ccccc1[N+](=O)[O-] | 100 |
| C=Cc1c(NCc2ncccc2C)cc(Cl)nc1C(=O)OC | 100 |
| COC(=O)c1nc(Cl)c(Cl)c(NCc2ncccc2Cl)c1Br | 90 |
| COC(=O)c1nc(Cl)cc(NCc2ccccc2Br)c1Cl | 100 |

* * *

- System: Echinochloa crus-galli (ECHCG)
- Test name: Post-emergence biological efficacy, glasshouse pot test
- Format: in vivo
- Test settings: 312 h, 1,000 g/ha, evaluated after 13 days, 100=total damage, 0=no damage, read-out: Percentage damage caused to weed species, post-emergence, ECHCG
Quick rule for you: pest or weed control at 1000 g/ha at 30% or higher means rule met, lower means rule not met.

| Molecule | Group label |
| --- | --- |
| C=Cc1c(NCc2ccccc2[N+](=O)[O-])cc(Cl)nc1C(=O)OC [Compound 15-12] | rule met |
| COC(=O)c1nc(Cl)cc(NC[C@@H]2CCCC[C@H]2O)c1Cl [Compound 68-2] | rule not met |
| COC(=O)c1nc(Cl)cc(NCc2cnc(C)cn2)c1Cl [Compound 81-2] | rule met |
| COC(=O)c1nc(-c2ccc(Cl)c(OC)c2F)cc(NCc2ccco2)c1Cl [Compound 26-164] | rule met |
| COC(=O)c1nc(Cl)cc(NCC2CC2)c1Cl [Compound 1-2] | rule met |
| COC(=O)c1nc(Cl)cc(NCc2ccccc2OC)c1Cl [Compound 73-2] | rule met |
| CCN1CCCC1CNc1cc(Cl)nc(C(=O)OC)c1Cl (stereo not drawn) [Compound 71-2] | rule not met |
| COC(=O)c1nc(C2CC2)cc(NCc2ccco2)c1Cl [Compound 26-83] | rule not met |

* * *

Quick reference: pest or weed control at 1000 g/ha of the listed items.
- System: Echinochloa crus-galli (ECHCG)
- Test name: Pre-emergence biological efficacy, glasshouse pot test
- Format: in vivo
- Test settings: 312 h, 1,000 g/ha, evaluated after 13 days, 100=total damage, 0=no damage, read-out: Percentage damage caused to weed species, pre-emergence, ECHCG
Parameter: pest or weed control at 1000 g/ha (%)

| Compound | Parameter | Measured value |
| --- | --- | --- |
| C=Cc1c(NCc2ccccc2[N+](=O)[O-])cc(Cl)nc1C(=O)OC | pest or weed control at 1000 g/ha | 90 |
| COC(=O)c1nc(Cl)cc(NCc2ccccc2OC)c1Cl | pest or weed control at 1000 g/ha | 20 |
| COC(=O)c1nc(Cl)cc(NCc2ccc3c(c2)OCO3)c1Cl | pest or weed control at 1000 g/ha | 0 |
| COC(=O)c1nc(Cl)cc(NCc2cccs2)c1Cl | pest or weed control at 1000 g/ha | 60 |
| COC(=O)c1nc(Cl)cc(NCc2cccc(F)c2)c1Cl | pest or weed control at 1000 g/ha | 50 |
| COC(=O)c1nc(Cl)c(F)c(NCc2ccccc2[N+](=O)[O-])c1C | pest or weed control at 1000 g/ha | 20 |
| C=Cc1c(NCc2ccc(N(C)C)cc2)cc(Cl)nc1C(=O)OC | pest or weed control at 1000 g/ha | 30 |
| COC(=O)c1nc(Cl)cc(NCc2cnc(C)cn2)c1Cl | pest or weed control at 1000 g/ha | 70 |
| C=Cc1c(NCc2c(Cl)cccc2Cl)cc(Cl)nc1C(=O)OC | pest or weed control at 1000 g/ha | 0 |
| COC(=O)c1nc(Cl)cc(NCc2ccccc2)c1Cl | pest or weed control at 1000 g/ha | 30 |
| COC(=O)c1nc(Cl)cc(NCc2cccnc2)c1Cl | pest or weed control at 1000 g/ha | 20 |
| COC(=O)c1nc(-c2ccc(Cl)c(OC)c2F)cc(NCc2ccc(OC)cc2OC)c1Cl | pest or weed control at 1000 g/ha | 60 |
| COC(=O)c1nc(Cl)cc(NCc2ncccc2C)c1Cl | pest or weed control at 1000 g/ha | 50 |
| COC(=O)c1nc(Cl)cc(NC[C@@H]2CCCC[C@H]2O)c1Cl | pest or weed control at 1000 g/ha | 0 |
| COC(=O)c1nc(Cl)cc(NCc2ccco2)c1C1CC1 | pest or weed control at 1000 g/ha | 10 |
| COC(=O)c1nc(Cl)cc(NCc2cc(C)nn2C)c1Cl | pest or weed control at 1000 g/ha | 20 |
| COC(=O)c1nc(Cl)cc(NCc2ccccc2Br)c1Cl | pest or weed control at 1000 g/ha | 10 |
| COC(=O)c1nc(Cl)c(Cl)c(NCc2ncccc2Cl)c1Br | pest or weed control at 1000 g/ha | 0 |
| COC(=O)c1nc(Cl)cc(NCC2CCCCC2)c1Cl | pest or weed control at 1000 g/ha | 10 |
| COC(=O)c1nc(Cl)cc(NCC2CCCO2)c1Cl (centres unmarked) | pest or weed control at 1000 g/ha | 20 |
| C=Cc1c(NCc2ncccc2Cl)cc(Cl)nc1C(=O)OC | pest or weed control at 1000 g/ha | 50 |
| C=Cc1c(NCc2ccco2)cc(Cl)nc1C(=O)O | pest or weed control at 1000 g/ha | 90 |
| C=Cc1c(NCc2ccco2)cc(-c2ccc(Cl)c(OC)c2F)nc1C(=O)OC | pest or weed control at 1000 g/ha | 30 |
| COC(=O)c1nc(Cl)cc(NCc2ccco2)c1Cl | pest or weed control at 1000 g/ha | 30 |
| C=Cc1c(NCc2ccccc2F)cc(Cl)nc1C(=O)OC | pest or weed control at 1000 g/ha | 30 |
| COC(=O)c1nc(Cl)cc(NCc2ccccc2[N+](=O)[O-])c1Cl | pest or weed control at 1000 g/ha | 80 |
| COC(=O)c1nc(C2CC2)cc(NCc2ccco2)c1Cl | pest or weed control at 1000 g/ha | 20 |
| COC(=O)c1nc(Cl)cc(NCc2ccccc2[N+](=O)[O-])c1Br | pest or weed control at 1000 g/ha | 20 |
| C=Cc1c(NCc2ccco2)cc(-c2ccc(Cl)c(N(C)C)c2F)nc1C(=O)OC | pest or weed control at 1000 g/ha | 20 |
| C=Cc1c(NCC2CCCCC2)cc(Cl)nc1C(=O)OC | pest or weed control at 1000 g/ha | 10 |
| C=Cc1c(NCC2CC2)cc(Cl)nc1C(=O)OC | pest or weed control at 1000 g/ha | 90 |
| C=Cc1c(C(=O)OC)nc(Cl)c(Cl)c1NCc1ccccc1[N+](=O)[O-] | pest or weed control at 1000 g/ha | 80 |
| COC(=O)c1nc(Cl)c(Cl)c(NCc2ccccc2[N+](=O)[O-])c1Br | pest or weed control at 1000 g/ha | 40 |
| COC(=O)c1nc(Cl)cc(NCc2ccc(Cl)cc2)c1Cl | pest or weed control at 1000 g/ha | 10 |
| CCN1CCCC1CNc1cc(Cl)nc(C(=O)OC)c1Cl (centres unmarked) | pest or weed control at 1000 g/ha | 20 |
| COC(=O)c1nc(Cl)cc(NCc2ccco2)c1Br | pest or weed control at 1000 g/ha | 50 |
| COC(=O)c1nc(Cl)cc(NCc2ccco2)c1C | pest or weed control at 1000 g/ha | 0 |
| C=Cc1c(NCc2ccccc2C(F)(F)F)cc(Cl)nc1C(=O)OC | pest or weed control at 1000 g/ha | 0 |
